Values were extracted from patent US20200055937A1.

Each entry below carries its recorded IC50.
Biological target: T1, human CTLA-4 (human, UniProt P16410 36-161, limits assumed)
T1 construct: also called HuCTLA-4; human cytotoxic T lymphocyte antigen-4
T1 sequence: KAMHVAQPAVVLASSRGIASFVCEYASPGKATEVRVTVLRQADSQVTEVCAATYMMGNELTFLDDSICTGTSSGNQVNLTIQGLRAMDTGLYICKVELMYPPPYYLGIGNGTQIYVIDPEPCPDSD
Experiment: ligand blocking assay with purified proteins; competitor CD86
quantity: IC50 (nM)

INSERT INTO results (binder, readout_number) VALUES
  ('MAb A4 (13F10D7) (antibody, V domains shown, also called Murine MAb A4; murine antibody A4) VH: EVQLRQSGPELVKPGTSVKISCKASGYKFTDHFINWVKQNHGKSLEWIGDINPNNGGTNSNQKFEGKATLTVDKSSSTAYMELRSLTSEDSAVYYCARLRREYFYAMDYWGQGTSVTVSS VL: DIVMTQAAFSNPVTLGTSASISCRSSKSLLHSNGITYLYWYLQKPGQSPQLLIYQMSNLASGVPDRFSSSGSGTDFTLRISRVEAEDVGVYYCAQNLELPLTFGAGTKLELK', 0.287),
  ('MAb A5 (32G4C12) (antibody, V domains shown, also called murine antibody A5) VH: QVQLQQSGPELVRPGASVKLSCKASGYTFTTYDINWVKQRPGQGLEWIGWIYPRDGSIIFNEKFKGKATLTVDTTSSTAYMELHSLTSEDSAVYFCARRGLLGPLDYWGQGTPLTVSS VL: DIVMTQSHKFMSTSVGDRVSITCKASQDVATTVAWYQQKPGQSPKLVIYWASTRHTGVPDRFTGSGSGTDFTLTISNVQSEDLADYFCQQYSSYPTFGVGTKLELK', 0.271),
  ('MAb A1 (16A9E9) (antibody, V domains shown, also called murine antibody A1) VH: DVQLQESGPGLVKPSQSLSLTCSVTGDSITSGYYWNWIRQFPGNKLEWMGYISYDGINNYYPSLENRISITRDTSRNQFFLKLNSVTTEDTATYYCAREVVTPGVEVPAWYFDVWGTGTTVTVSS VL: DIVLTQSPTSLTVSLGQRAIISCKASQSVSFAGTGLMHWYQQKPGQQPKLLIYRASNLEAGVPTRFSGSGSRTDFTLNIHPVEEDDAATYYCQQSREYPWTFGGGTTLEIN', 0.365);
